molecular target: MERTK (UniProt Q12866); test: phosphorylation enrichment, bacterial display (enrichment ratio); higher = better substrate or ligand; peptides without Tyr show the background;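 also: 11-residue human phosphosite peptides and single-mutation variants displayed on the E. coli surface, counted by deep sequencing, each peptide's frequency after selection divided by its frequency in the unselected input library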;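 also: frequency after pTyr selection over input frequency; kinase dosed for 20-30% of maximal phosphorylation in three min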
Sequence (Q12866 whole entry, looked up): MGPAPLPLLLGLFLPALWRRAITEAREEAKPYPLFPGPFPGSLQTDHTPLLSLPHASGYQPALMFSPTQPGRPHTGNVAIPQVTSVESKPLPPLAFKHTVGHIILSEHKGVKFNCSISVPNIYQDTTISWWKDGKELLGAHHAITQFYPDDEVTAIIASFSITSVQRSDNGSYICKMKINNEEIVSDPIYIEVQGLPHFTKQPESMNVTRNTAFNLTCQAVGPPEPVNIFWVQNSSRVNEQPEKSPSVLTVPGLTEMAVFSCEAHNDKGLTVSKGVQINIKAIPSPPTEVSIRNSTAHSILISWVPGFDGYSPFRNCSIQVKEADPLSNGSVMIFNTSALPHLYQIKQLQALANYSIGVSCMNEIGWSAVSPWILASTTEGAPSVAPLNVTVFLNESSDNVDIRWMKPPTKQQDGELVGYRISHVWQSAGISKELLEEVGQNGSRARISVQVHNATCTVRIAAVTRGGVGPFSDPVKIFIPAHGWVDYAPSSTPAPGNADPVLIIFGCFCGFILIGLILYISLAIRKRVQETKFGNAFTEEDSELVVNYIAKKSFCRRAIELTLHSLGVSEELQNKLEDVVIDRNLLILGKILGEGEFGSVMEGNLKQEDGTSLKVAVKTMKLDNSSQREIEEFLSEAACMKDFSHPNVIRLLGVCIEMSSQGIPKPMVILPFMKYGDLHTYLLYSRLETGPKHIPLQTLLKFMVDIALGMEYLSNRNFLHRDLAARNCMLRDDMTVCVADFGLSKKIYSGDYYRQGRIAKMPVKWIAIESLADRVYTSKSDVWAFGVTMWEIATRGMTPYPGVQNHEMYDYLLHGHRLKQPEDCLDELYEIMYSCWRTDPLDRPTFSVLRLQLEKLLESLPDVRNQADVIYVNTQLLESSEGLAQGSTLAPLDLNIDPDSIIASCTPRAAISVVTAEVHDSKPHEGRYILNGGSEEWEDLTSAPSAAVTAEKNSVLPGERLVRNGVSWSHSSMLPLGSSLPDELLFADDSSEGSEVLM
Give Criterion met when the value for phosphorylation enrichment is at least 0.5. Give Criterion not met when it is less.

Completed entries (count: 5):
sequence_content="KWLEQYTQAIE [LSP1_Y234_Q229K]" system_tested="MERTK (UniProt Q12866)" discrete_label="Criterion not met"
sequence_content="DLSEVYKPCRK [CCDC93_Y176_R179C]" system_tested="MERTK (UniProt Q12866)" discrete_label="Criterion not met"
sequence_content="ILDEAYVMASV [EGFR_Y764]" system_tested="MERTK (UniProt Q12866)" discrete_label="Criterion not met"
sequence_content="ILGRTYFVNHE [NEDD4_Y627_YF]" system_tested="MERTK (UniProt Q12866)" discrete_label="Criterion not met"
sequence_content="LEAVSYSSRYA [RNLS_Y190]" system_tested="MERTK (UniProt Q12866)" discrete_label="Criterion met"

Prompt line: Please indicate if the recorded phosphorylation enrichment for YGPPQYNMQYS [ERBB2IP_Y977_I979M] meets or exceeds 0.5.
Response line: Criterion not met

Prompt line: Confirm if phosphorylation enrichment reported for the sequence CTTFHYNYMCN [TP53_Y234_I232F] is 0.5 or above.
Response line: Criterion not met

Prompt line: Textbook exercise: given the entry ETKENYGKTLK [CHL1_Y291] , state whether its phosphorylation enrichment is greater than or equal to 0.5.
Response line: Criterion not met

Prompt line: Can AGADGYGYLAP [FOXL2_Y186] be said to have phosphorylation enrichment at or above 0.5?
Response line: Criterion not met

Prompt line: Quick check, phosphorylation enrichment >= 0.5? WFKKFYDANFD [MAPRE2_Y158_YF]
Response line: Criterion not met

Prompt line: Does PLLEYYRDIFT [CDAN1_Y713] have a reported phosphorylation enrichment of at least 0.5?
Response line: Criterion met

Prompt line: Determine whether this sequence has phosphorylation enrichment no lower than 0.5: ECKASCPGKIT [PRSS3_Y232_Y232C]
Response line: Criterion not met

Prompt line: Reported phosphorylation enrichment reaches at least 0.5 for RHPLDYLRQFP [NARS2_Y138_E137D_YF] ?
Response line: Criterion met

Prompt line: Dear colleague, could you confirm whether ENEGTYVCIAT [ADAMTSL3_Y1365] has phosphorylation enrichment at or above 0.5?
Response line: Criterion met

Prompt line: Evaluate TLNHQYDYTFD [CSNK1A1_Y292] : phosphorylation enrichment at minimum 0.5?
Response line: Criterion not met

Prompt line: Tell me whether phosphorylation enrichment is at least 0.5 here: TFYQMYDKGLV [IARS2_Y231]
Response line: Criterion met

Prompt line: # bool: phosphorylation enrichment of LEFGDYHPLKP [VPS35L_Y32] >= 0.5
Response line: Criterion met

Prompt line: State whether the measured phosphorylation enrichment reaches 0.5, counting equality as reaching it, for TMKSHYMELFD [BBS2_Y644_R643H_YF]
Response line: Criterion met

Prompt line: Reported phosphorylation enrichment reaches at least 0.5 for VDGSLYKTHPQ [HK1_Y417] ?
Response line: Criterion not met

Prompt line: Say whether GVIRHSVVCST [BTK_Y334_Y334S] shows phosphorylation enrichment of 0.5 or more.
Response line: Criterion not met

Prompt line: Assess whether reported phosphorylation enrichment for RHFTTYDTNGR [CLCA1_Y665_Y661H] sits at 0.5 or higher.
Response line: Criterion met

Prompt line: Hi team, for VRFVDYVLFRS [FAM189B_Y361_S358F] , is the recorded phosphorylation enrichment at or above 0.5?
Response line: Criterion not met

Prompt line: Decide: phosphorylation enrichment of MGSYNYLGFAR [SPTLC2_Y178] >= 0.5?
Response line: Criterion met

Prompt line: Reported phosphorylation enrichment reaches at least 0.5 for AEFGLYGAMVR [VSX2_Y222_YF] ?
Response line: Criterion met

Prompt line: Does the reported phosphorylation enrichment for SCTFTCLLGDR [ETHE1_Y38_Y38C] fall at or above the 0.5 mark?
Response line: Criterion not met

Prompt line: Form field: phosphorylation enrichment at least 0.5? Entry: GASWRYGSGVS [NEU1_Y242]
Response line: Criterion not met

---

target: Fes (UniProt P07332); test: phosphorylation enrichment, bacterial display (enrichment ratio); higher = better substrate or ligand; peptides without Tyr show the background
Sequence (P07332 whole entry, looked up): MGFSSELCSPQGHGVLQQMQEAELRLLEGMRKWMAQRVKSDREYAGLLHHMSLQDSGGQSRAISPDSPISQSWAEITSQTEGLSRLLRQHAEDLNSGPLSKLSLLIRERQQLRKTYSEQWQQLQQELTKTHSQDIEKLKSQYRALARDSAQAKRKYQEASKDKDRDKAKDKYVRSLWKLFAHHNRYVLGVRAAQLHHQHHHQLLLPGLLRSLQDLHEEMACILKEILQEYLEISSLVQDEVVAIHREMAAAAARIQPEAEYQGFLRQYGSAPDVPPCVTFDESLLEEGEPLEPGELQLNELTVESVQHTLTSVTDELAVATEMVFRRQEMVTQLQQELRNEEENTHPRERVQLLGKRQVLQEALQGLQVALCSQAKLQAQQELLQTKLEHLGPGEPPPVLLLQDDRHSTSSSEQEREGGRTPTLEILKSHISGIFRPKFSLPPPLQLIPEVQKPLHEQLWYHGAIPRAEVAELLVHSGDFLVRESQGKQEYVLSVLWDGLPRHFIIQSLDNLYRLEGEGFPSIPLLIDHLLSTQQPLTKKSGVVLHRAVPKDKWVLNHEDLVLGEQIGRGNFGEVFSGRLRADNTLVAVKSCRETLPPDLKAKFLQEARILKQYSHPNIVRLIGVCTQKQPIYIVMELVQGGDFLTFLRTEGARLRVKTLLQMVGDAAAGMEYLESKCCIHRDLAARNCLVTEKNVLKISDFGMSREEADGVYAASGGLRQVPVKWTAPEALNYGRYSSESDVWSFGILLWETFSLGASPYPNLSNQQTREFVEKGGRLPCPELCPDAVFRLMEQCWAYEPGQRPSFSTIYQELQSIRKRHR
// reported phosphorylation enrichment per item

These solved cases illustrate the format of a correct answer.
sequence_content="EVKRLYGSVCD [TC2N_Y154]" reported_endpoint="phosphorylation enrichment" reading=1.16
sequence_content="TLNHQYDFTFD [CSNK1A1_Y292_YF]" reported_endpoint="phosphorylation enrichment" reading=1.07
sequence_content="MEYLPYGSLRD [JAK2_Y934]" reported_endpoint="phosphorylation enrichment" reading=1.26
sequence_content="RGVTRYIYNRE [HLA-DQB1_Y62_Y58G]" reported_endpoint="phosphorylation enrichment" reading=1.16

Okay, now this sequence:
Prompt line: What measured phosphorylation enrichment goes with EKLIQYCQSKS [AKR1B1_Y199_G204S] ?
Response line: 0.807

---

Each item that follows carries a reported phosphorylation enrichment.
biological target: Fyn (UniProt P06241); test: phosphorylation enrichment, bacterial display (enrichment ratio); higher = better substrate or ligand; peptides without Tyr show the background
Sequence (P06241 whole entry, looked up): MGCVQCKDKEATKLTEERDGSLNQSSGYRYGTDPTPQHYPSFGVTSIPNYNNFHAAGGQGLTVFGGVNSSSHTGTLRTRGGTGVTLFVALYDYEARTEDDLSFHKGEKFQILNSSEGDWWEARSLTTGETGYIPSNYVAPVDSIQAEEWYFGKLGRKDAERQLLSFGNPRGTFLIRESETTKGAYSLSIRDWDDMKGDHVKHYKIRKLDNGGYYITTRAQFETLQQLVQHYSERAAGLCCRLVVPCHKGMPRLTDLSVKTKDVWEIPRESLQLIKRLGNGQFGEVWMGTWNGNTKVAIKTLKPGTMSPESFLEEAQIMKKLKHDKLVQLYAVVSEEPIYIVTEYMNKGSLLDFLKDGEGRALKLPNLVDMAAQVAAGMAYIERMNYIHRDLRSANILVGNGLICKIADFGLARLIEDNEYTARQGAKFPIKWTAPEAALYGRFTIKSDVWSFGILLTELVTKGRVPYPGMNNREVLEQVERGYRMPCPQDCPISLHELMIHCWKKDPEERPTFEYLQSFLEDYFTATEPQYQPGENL

Study these solved cases before continuing.
sequence_content="PNEAVYTKMMT [G6PD_Y401]" reading=2.31
sequence_content="DVSKEYGHLLP [HRC_Y99]" reading=0.624
sequence_content="PYYTSYPPSPD [GDAP2_Y491]" reading=5.09
sequence_content="EIPTQYEAMAS [GFAP_Y242_R239P]" reading=0.487
sequence_content="GLTSTYAGIRK [ROBO1_Y932]" reading=1.46
sequence_content="RKKEEYKMALF [F8_Y1990_YF]" reading=0.31
sequence_content="KWLEQYTQAIE [LSP1_Y234_Q229K]" reading=0.454
sequence_content="DWLRRYLENGK [HLA-A_Y195_E190D]" reading=0.642
sequence_content="AIMSFYATLID [RYR1_Y2426_A2428T]" reading=0.508
sequence_content="ADELEYSRTGL [MMUT_Y287_G284E]" reading=0.482

Prompt line: Field request: phosphorylation enrichment | item: PADQAYSWFQH [NDST1_Y711_R709Q_YF]
Response line: 1.38

Prompt line: Look up phosphorylation enrichment: EILLSDLRTGY [TGM1_Y365_Y365D]
Response line: 0.416

Prompt line: Can you look up the measured phosphorylation enrichment of FTRNFYVRAVL [CYBA_Y88_YF] for me?
Response line: 0.529

---

target: Jak2 (UniProt O60674); assay: phosphorylation enrichment, bacterial display (enrichment ratio); higher = better substrate or ligand; peptides without Tyr show the background
Sequence (O60674 whole entry, looked up): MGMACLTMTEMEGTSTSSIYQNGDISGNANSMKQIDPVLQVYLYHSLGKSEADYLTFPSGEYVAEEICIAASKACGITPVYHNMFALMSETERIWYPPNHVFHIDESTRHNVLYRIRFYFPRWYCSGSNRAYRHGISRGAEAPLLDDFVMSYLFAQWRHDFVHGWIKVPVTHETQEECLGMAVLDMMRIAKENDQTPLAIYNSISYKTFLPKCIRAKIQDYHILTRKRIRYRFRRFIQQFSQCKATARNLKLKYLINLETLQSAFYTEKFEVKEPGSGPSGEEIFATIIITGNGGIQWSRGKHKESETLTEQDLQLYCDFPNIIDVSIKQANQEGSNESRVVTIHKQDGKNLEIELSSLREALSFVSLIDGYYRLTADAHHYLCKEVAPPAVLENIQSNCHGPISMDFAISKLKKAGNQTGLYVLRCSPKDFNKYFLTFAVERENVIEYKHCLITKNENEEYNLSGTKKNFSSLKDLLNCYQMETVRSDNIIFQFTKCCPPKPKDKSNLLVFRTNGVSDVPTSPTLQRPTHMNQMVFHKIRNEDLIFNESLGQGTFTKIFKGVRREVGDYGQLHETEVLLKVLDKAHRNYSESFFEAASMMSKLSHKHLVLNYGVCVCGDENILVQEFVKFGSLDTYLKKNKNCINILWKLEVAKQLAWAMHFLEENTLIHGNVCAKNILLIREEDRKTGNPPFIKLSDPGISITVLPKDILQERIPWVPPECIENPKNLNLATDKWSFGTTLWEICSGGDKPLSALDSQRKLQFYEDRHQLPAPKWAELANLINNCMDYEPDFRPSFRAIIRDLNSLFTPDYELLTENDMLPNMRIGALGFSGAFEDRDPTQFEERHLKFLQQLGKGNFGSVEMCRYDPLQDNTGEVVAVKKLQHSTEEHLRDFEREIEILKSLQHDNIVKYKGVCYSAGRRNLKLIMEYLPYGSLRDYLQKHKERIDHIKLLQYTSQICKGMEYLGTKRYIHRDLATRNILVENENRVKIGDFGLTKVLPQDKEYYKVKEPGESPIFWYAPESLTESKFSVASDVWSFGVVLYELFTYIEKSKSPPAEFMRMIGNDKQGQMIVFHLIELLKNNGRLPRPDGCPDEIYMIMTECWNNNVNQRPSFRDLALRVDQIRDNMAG
Hi, to clarify the labels: criterion met covers phosphorylation enrichment from 1 upward, criterion not met covers anything below 1.

Example results:
sequence_content="RRIEKYVDQGK [IRAK3_Y61_H57R]" discrete_label="criterion not met"
sequence_content="DGTGHYLGNAC [GATA5_Y208_C210G]" discrete_label="criterion not met"
sequence_content="KVIDMYLMGCF [GABRB2_Y308_A304V]" discrete_label="criterion met"
sequence_content="LTDRGYSFVTT [ACTA1_Y200_E197D]" discrete_label="criterion met"
sequence_content="PVQAAYKKVVA [HBB_Y131_Q132K]" discrete_label="criterion not met"

Prompt line: Item EVKRLYGSVCD [TC2N_Y154] with phosphorylation enrichment of 1 or above?
Response line: criterion met

Prompt line: Evaluate ESLRSYDVMDV [KCNQ2_Y562_P561S] : phosphorylation enrichment at minimum 1?
Response line: criterion not met

Prompt line: State whether the measured phosphorylation enrichment reaches 1, counting equality as reaching it, for RSFLSYFTSHV [NEFL_Y442_P440L_YF]
Response line: criterion met

Prompt line: # bool: phosphorylation enrichment of AIIGIYILRDD [CDH23_Y2949] >= 1
Response line: criterion met

Prompt line: Given the entry ELSDGYWVVSN [TPP1_Y459_A454E] , answer whether its phosphorylation enrichment meets or surpasses 1.
Response line: criterion met

Prompt line: Check the entry VDLSKCITTIA [FAS_Y232_Y232C] : does phosphorylation enrichment equal or exceed 1?
Response line: criterion not met

Prompt line: Please tell me: is the sequence FMLFQYLKQIE [RPAP3_Y569_D564Y_YF] at or over 1 in terms of phosphorylation enrichment?
Response line: criterion met

Prompt line: Kindly determine if phosphorylation enrichment recorded for FPHVIYARLWR [SMAD4_Y95] is above or exactly 1.
Response line: criterion not met

Prompt line: Does the sequence ARGMEYLAEQK [MST1R_Y1198_G1195S] have recorded phosphorylation enrichment that is 1 or more?
Response line: criterion not met

Prompt line: phosphorylation enrichment >= 1 for EPYELYCEMGS [CBL_Y371_Q367P] ?
Response line: criterion met
